# target: ATP-dependent Clp protease proteolytic subunit (Bacillus subtilis (strain 168))
# measurement-description: qHTS Assay for Activators of ClpP; further: the source files actives as falling curves though it sought activators and does not explain the sign; nearly all actives have a fitted effect of over 65% in size
# assay-context: purified B. subtilis ClpP, FRET peptide cleavage, 20 min; series mostly up to 57.5 µM
In all, about 340,000 compounds went through this assay and about 6,400 (1.9%) were called active. Not shown: some 4% with an inconclusive outcome. The call rests on the fitted dose curve; in most records, active means well fitted falling curve with a large enough effect; inconclusive means small, poorly fitted or top-dose-only effect; inactive means no such curve, though single readings can be large or run the other way. This excerpt belongs to a sample that is enriched for actives.
// allowed return values: true for active, false for inactive

Reference set, count: 4
molecule	label-value
CC1(C(=O)NS(=O)(=O)c2ccccc2Cl)CCN1C(=O)c1cccc(F)c1 (stereo not given)	false
COc1ccc2c(c1OC)C(=O)N(c1ncn[nH]1)C2	true
O=C(NCc1cccnc1)c1cc(C2CCCN(C(=O)C3CCCCC3)C2)on1 (stereo not given)	false
COc1ccc(S(=O)(=O)N2CCCCC2c2cc(C(=O)NCc3ccc(F)cc3)no2)cc1 (stereo not given)	false

Prompt: Would you mind telling me which call this test gave "CN1CCN(c2ccc3c(c2)OC[C@H](Cc2ccccc2)NS3(=O)=O)CC1" ?
Response: false
